experiment: Oral bioavailability in Han Wistar rat; assay type: ADME, organism-based; details: in vivo
measured_endpoint: bioavailability
Returns: string containing the number followed by the unit.

NC1(c2ccc(-c3nn4ccnc4cc3-c3ccccc3)cc2)CCC1: 0%

I have 5 compounds here; please give me bioavailability for each one.
1. NC1(c2ccc(-c3ncc4nccn4c3-c3ccccc3)cc2)CCC1
2. NC1(c2ccc(-c3nc4ccccc4cc3-c3ccccc3)cc2)CCC1
3. NC1(c2ccc(-c3nn4ccccc4c3-c3ccccc3)cc2)CCC1
4. NC1(c2ccc(-c3nc4ccccn4c3-c3ccccc3)cc2)CCC1
5. NC(=O)c1cnc(-c2ccc(C3(N)CCC3)cc2)c(-c2ccccc2)c1

result:
30%
0%
0%
36%
48%
